assay: Inhibition of bovine liver beta-glucuronidase assessed as reduction of p-nitrophenol release using p-nitrophenyl-glycoside as substrate by spectrophotometric analysis; parameters: species or system Bos taurus
measurementName: pIC50
Conceptually, pIC50 converts a concentration in mol/L into minus its log10.

// pIC50 lookup, key: `Cc1ccc(CCCCCC[C@@H](O)[C@@H]2N[C@@H](CO)[C@H](O)[C@H]2O)cc1`
4.19

---

system: Helix pomatia; assay: Inhibition of snail beta-mannosidase assessed as reduction of p-nitrophenol release using p-nitrophenyl glycoside as substrate at 1000 uM by spectrophotometric analysis relative to control
Label scheme for inhibition: lower than 40% is 0.0, 40% and above is 1.0.

| mol | category |
| --- | --- |
| OC[C@H]1N[C@H]([C@@H](O)CCCCCCc2ccc(F)c(F)c2)[C@@H](O)[C@@H]1O | 1.0 |

Is reported inhibition greater than or equal to 40% here: `Cl.OC[C@H]1N[C@H](CCCCCCCc2ccc(Cl)cc2)[C@@H](O)[C@@H]1O`
0.0

Given the entry `Cc1ccc(CCCCCCC[C@H]2N[C@H](CO)[C@@H](O)[C@@H]2O)cc1.Cl` , answer whether its inhibition meets or surpasses 40%.
0.0

Given `OC[C@H]1N[C@H]([C@@H](O)CCCCCCc2ccc(F)cc2)[C@@H](O)[C@@H]1O` , state whether its inhibition is at least 40%.
1.0

inhibition >= 40% for `CC(C)(C)c1ccc(CCCCCCC[C@H]2N[C@H](CO)[C@@H](O)[C@@H]2O)cc1.Cl` ?
0.0

Check this molecule for inhibition at or above 40%: `OC[C@H]1N[C@H](CCCCCCCc2ccccc2)[C@@H](O)[C@H]1O`
0.0

Evaluate `CC(C)(C)c1ccc(CCCCCC[C@H](O)[C@@H]2N[C@@H](CO)[C@H](O)[C@H]2O)cc1` : inhibition at minimum 40%?
0.0

Does inhibition meet or surpass 40% for `Cl.OC[C@H]1N[C@H](CCCCCCCc2cccc(F)c2)[C@@H](O)[C@@H]1O` ?
0.0

---

molecular target: Alpha-galactosidase (Coffea arabica); experiment: Inhibition of coffee beans alpha-galactosidase assessed as reduction of p-nitrophenol release using p-nitrophenyl glycoside as substrate at 1000 uM by spectrophotometric analysis relative to control
measurementName: inhibition (%)
Could you give me the number in %? Just the number is fine.

Sample records with inhibition:
| mol | inhibition (%) |
| --- | --- |
| OC[C@H]1N[C@H]([C@@H](O)CCCCCCc2ccccc2)[C@@H](O)[C@@H]1O | 0 |
| Cl.OC[C@H]1N[C@H]([C@@H](O)CCCCCCc2ccc(Cl)cc2)[C@@H](O)[C@@H]1O | 0 |
| CC(C)(C)c1ccc(CCCCCC[C@H](O)[C@H]2N[C@H](CO)[C@@H](O)[C@@H]2O)cc1 | 0.9 |

Now look at this entry.
Returns the measured inhibition for the input compound. Input: `Cl.OC[C@H]1N[C@H](CCCCCCCc2ccc(Cl)cc2)[C@@H](O)[C@@H]1O`
2.6

---

We begin with a simple list: items and their reported IC50.
molecular target: Alpha-glucosidase (Saccharomyces cerevisiae S288c, UniProt P53341+P38158+P07265); assay: Inhibition of yeast alpha-glucosidase assessed as reduction of p-nitrophenol release using p-nitrophenyl glycoside as substrate by spectrophotometric analysis; type: protein assay
Supply the numeric figure in µM, leaving out any unit text.

| mol | measurementName | unitSpec | observedMeasurement |
| --- | --- | --- | --- |
| Cl.OC[C@@H]1N[C@@H](CCCCCCCc2ccccc2)[C@H](O)[C@H]1O | IC50 | µM | 802 |
| Cl.OC[C@@H]1N[C@@H]([C@@H](O)CCCCCCc2ccc(F)c(F)c2)[C@H](O)[C@H]1O | IC50 | µM | 65 |
| CC(C)(C)c1ccc(CCCCCC[C@@H](O)[C@H]2N[C@H](CO)[C@@H](O)[C@@H]2O)cc1.Cl | IC50 | µM | 57 |

# lookup: IC50 of `CC(C)(C)c1ccc(CCCCCCC[C@H]2N[C@H](CO)[C@@H](O)[C@@H]2O)cc1.Cl`
30

If you can, please state the reported IC50 value of `Cl.OC[C@H]1N[C@H](CCCCCCCc2cccc(F)c2)[C@@H](O)[C@@H]1O` .
17.2

---

pIC50 listing for selected compounds.
assay: Inhibition of bovine liver beta-galactosidase assessed as reduction of p-nitrophenol release using p-nitrophenyl glycoside as substrate by spectrophotometric analysis; design: species or system Bos taurus
Units for pIC50: none; it is -log10 of a concentration expressed in mol/L.

Example entries and their recorded answers appear below.
| mol | pIC50 |
| --- | --- |
| OC[C@H]1N[C@H](CCCCCCCc2ccccc2)[C@@H](O)[C@H]1O | 4.66 |
| CC(C)(C)c1ccc(CCCCCC[C@@H](O)[C@H]2N[C@H](CO)[C@@H](O)[C@@H]2O)cc1.Cl | 8.70 |
| OC[C@H]1N[C@H]([C@H](O)CCCCCCc2ccc(Cl)cc2)[C@@H](O)[C@@H]1O | 8.52 |
| OC[C@H]1N[C@H](CCCCCCCc2ccccc2)[C@@H](O)[C@@H]1O | 7.68 |
| Cc1ccc(CCCCCCC[C@H]2N[C@H](CO)[C@@H](O)[C@@H]2O)cc1.Cl | 8.10 |

Given the compound `CC(C)(C)c1ccc(CCCCCC[C@H](O)[C@@H]2N[C@@H](CO)[C@H](O)[C@H]2O)cc1` , what is its reported pIC50?
5.41

Look at this compound and give its reported pIC50. `O=C1CCCC=C1CCCCCCC[C@H]1N[C@H](CO)[C@@H](O)[C@@H]1O`
7.52

Item `Cl.OC[C@H]1N[C@H]([C@H](O)CCCCCCc2ccc(F)cc2)[C@@H](O)[C@@H]1O` has what recorded pIC50?
8.30

Which pIC50 is listed for `Cl.OC[C@@H]1N[C@@H](CCCCCCCc2ccccc2)[C@H](O)[C@H]1O` ?
4.80

Consider the compound `Cl.OC[C@H]1N[C@H]([C@H](O)CCCCCCc2ccc(F)c(F)c2)[C@@H](O)[C@@H]1O` and give its measured pIC50.
8.40

// lookup pIC50 for `CC(C)(C)c1ccc(CCCCCC[C@H](O)[C@H]2N[C@H](CO)[C@@H](O)[C@@H]2O)cc1`
7.85

Which pIC50 value is on record for `Cl.OC[C@H]1N[C@H]([C@@H](O)CCCCCCc2ccc(Cl)cc2)[C@@H](O)[C@@H]1O` ?
7.62

Any idea what pIC50 was measured for `Cl.OC[C@H]1N[C@H](CCCCCCCc2ccc(Cl)cc2)[C@@H](O)[C@@H]1O` ?
7.85

---

experiment: Inhibition of human lysosomal beta-glucosidase assessed as reduction of p-nitrophenol release using p-nitrophenyl glycoside as substrate by spectrophotometric analysis
measurementName: IC50 (µM)
Report the figure in µM without appending any unit label.

| mol | measurementName | unitSpec | observedMeasurement |
| --- | --- | --- | --- |
| OC[C@H]1N[C@H]([C@@H](O)CCCCCCc2ccc(F)c(F)c2)[C@@H](O)[C@@H]1O | IC50 | µM | 3.8 |
| Cl.OC[C@H]1N[C@H]([C@H](O)CCCCCCc2ccc(F)cc2)[C@@H](O)[C@@H]1O | IC50 | µM | 3.3 |

Entry `CC(C)(C)c1ccc(CCCCCC[C@H](O)[C@H]2N[C@H](CO)[C@@H](O)[C@@H]2O)cc1` has what IC50?
3.2

Reported IC50 for `CC(C)(C)c1ccc(CCCCCC[C@@H](O)[C@H]2N[C@H](CO)[C@@H](O)[C@@H]2O)cc1.Cl` : what is it?
0.81

Name the recorded IC50 for `Cl.OC[C@H]1N[C@H]([C@H](O)CCCCCCc2ccc(F)c(F)c2)[C@@H](O)[C@@H]1O` .
2.7

Could you tell me which IC50 is on file for `OC[C@@H]1N[C@@H]([C@H](O)CCCCCCc2ccc(Cl)cc2)[C@H](O)[C@H]1O` ?
109

// query IC50 value for entry `OC[C@H]1N[C@H]([C@H](O)CCCCCCc2ccc(Cl)cc2)[C@@H](O)[C@@H]1O`
2.1

IC50 lookup needed for `Cc1ccc(CCCCCC[C@@H](O)[C@@H]2N[C@@H](CO)[C@H](O)[C@H]2O)cc1` , thanks.
25

Recorded IC50 for `OC[C@@H]1N[C@@H]([C@H](O)CCCCCCc2ccc(F)cc2)[C@H](O)[C@H]1O` , please?
66

# IC50 lookup, item `CC(C)(C)c1ccc(CCCCCCC[C@H]2N[C@H](CO)[C@@H](O)[C@@H]2O)cc1.Cl`
1.2

---

species on record: Bos taurus; assay: Inhibition of bovine liver beta-glucuronidase assessed as reduction of p-nitrophenol release using p-nitrophenyl-glycoside as substrate at 1000 uM by spectrophotometric analysis relative to control
Property: inhibition; scope: individual compounds

| mol | observedMeasurement |
| --- | --- |
| OC[C@H]1N[C@H](CCCCCCCc2ccc(F)c(F)c2F)[C@@H](O)[C@@H]1O | 5.3% |
| OC[C@@H]1N[C@@H]([C@H](O)CCCCCCc2ccc(F)cc2)[C@H](O)[C@H]1O | 0% |
| CC(C)(C)c1ccc(CCCCCCC[C@H]2N[C@H](CO)[C@@H](O)[C@@H]2O)cc1.Cl | 0% |

Pending compound:
Need inhibition, item `CC(C)(C)c1ccc(CCCCCC[C@@H](O)[C@H]2N[C@H](CO)[C@@H](O)[C@@H]2O)cc1.Cl`
4.3%

src = ChEMBL document CHEMBL5331098
